Quick record of MIC values for Micrococcus luteus ATCC 9341.

# annotated cases, reported MIC shown
• CC[C@H]1OC(=O)[C@H](C)C(=O)[C@H](C)[C@@H](O[C@@H]2O[C@H](C)C[C@H](N(C)C)[C@H]2O)[C@](C)(OC/C=C/c2cncc(-c3ccsc3)c2)C[C@@H](C)C(=O)[C@H](C)[C@H]2NC(=O)O[C@@]21C = 0.02 µg/mL
• CC[C@H]1OC(=O)[C@H](C)C(=O)[C@H](C)[C@@H](O[C@@H]2O[C@H](C)C[C@H](N(C)C)[C@H]2O)[C@](C)(OCC#Cc2ccc(-c3cccc(F)c3)s2)C[C@@H](C)C(=O)[C@H](C)[C@H]2NC(=O)O[C@@]21C = 0.05 µg/mL
• CC[C@H]1OC(=O)[C@H](C)C(=O)[C@H](C)[C@@H](O[C@@H]2O[C@H](C)C[C@H](N(C)C)[C@H]2O)[C@](C)(OC/C=C/c2cncc(-c3ccccn3)c2)C[C@@H](C)C(=O)[C@H](C)[C@H]2NC(=O)O[C@@]21C = 0.02 µg/mL
• CC[C@H]1OC(=O)[C@H](C)C(=O)[C@H](C)[C@@H](O[C@@H]2O[C@H](C)C[C@H](N(C)C)[C@H]2O)[C@](C)(OCC#Cc2ccc(-c3ccc(C=O)o3)cc2)C[C@@H](C)C(=O)[C@H](C)[C@H]2NC(=O)O[C@@]21C = 0.02 µg/mL

Please report the recorded MIC for CC[C@H]1OC(=O)[C@H](C)C(=O)[C@H](C)[C@@H](O[C@@H]2O[C@H](C)C[C@H](N(C)C)[C@H]2O)[C@](C)(OC/C=C/c2ccc(-c3ncccn3)s2)C[C@@H](C)C(=O)[C@H](C)[C@H]2NC(=O)O[C@@]21C . 0.01 µg/mL

* * *

# Test system: Streptococcus Pneumonia 5979
Measured MIC by item
Response body: numeric value in µg/mL, unit text excluded.

- CC[C@H]1OC(=O)[C@H](C)C(=O)[C@H](C)[C@@H](O[C@@H]2O[C@H](C)C[C@H](N(C)C)[C@H]2O)[C@](C)(OCC#Cc2ccc(-c3cccc(C)c3)s2)C[C@@H](C)C(=O)[C@H](C)[C@H]2NC(=O)O[C@@]21C: 2
- CC[C@H]1OC(=O)[C@H](C)C(=O)[C@H](C)[C@@H](O[C@@H]2O[C@H](C)C[C@H](N(C)C)[C@H]2O)[C@](C)(OCC#Cc2ccc(-c3cncc(C(=O)NN(C)C)c3)s2)C[C@@H](C)C(=O)[C@H](C)[C@H]2NC(=O)O[C@@]21C: 1

Now for a further compound.
What is its MIC for Streptococcus Pneumonia 5979? Entry: CC[C@H]1OC(=O)[C@H](C)C(=O)[C@H](C)[C@@H](O[C@@H]2O[C@H](C)C[C@H](N(C)C)[C@H]2O)[C@](C)(OCC#Cc2ccc(-c3cc4ccccc4s3)s2)C[C@@H](C)C(=O)[C@H](C)[C@H]2NC(=O)O[C@@]21C 8

Values from patent US6054435A
